# Tested on: RS 4;11
# protocol_description: MTT tumor cell proliferation, RS 4;11
# Assay type: cell-based
# test_parameters: Homo sapiens, RS4-11; RS 4;11, Acute lymphocytic leukemia, 72 hour
assay_readout: pIC50
Please note pIC50 is a logarithmic value: minus log10 of concentration in mol/L. Answer with that number alone.

Challenge: Given `c1cnc2ccc(Nc3nc(NC4CC4)c4nc[nH]c4n3)cc2c1` , respond with its pIC50.
Response given: 6.40

====

# System: PDGFR
# protocol_description: Inhibition of PDGFR phosphorylation
# Assay type: biochemical
# Source text: FLT3 is a class III receptor tyrosine kinase and plays an important role in hematopoiesis and lymphocyte development. […] Wang et al found over 60% of 82 leukemia cell lines were FLT3 positive (Wang Y et al., (2006) Journal of Experimental Hematology 14(3): 446-449). FLT3-internal tandem duplication (ITD) is the most commonly seen mutation in AML patients, with about 17-34% of AML patients carrying such a mutation (Jia H et al., (2018) Medical Laboratory Science and Clinics 19(5): 39). […]
pEC50: −log10 of the molar value.
assay_readout: pEC50

Challenge: Dear colleague, please send me the reported pEC50 for `c1cnc2ccc(Nc3nc(NC4CC4)c4nc[nH]c4n3)cc2c1` when you can.
Response given: ~6.00
